Values from ChEMBL document CHEMBL5291721

AC50 values recorded for Cannabinoid receptor 1 (Homo sapiens, UniProt P21554)

Past entries and their recorded results:
compound	AC50
CC(N)C(O)c1ccccc1 (centres undefined)	> 10 µM
Cn1c(=O)cc(N2CCC[C@@H](N)C2)n(Cc2ccccc2C#N)c1=O	> 10 µM
C=CC[C@@H]1/C=C(\C)C[C@H](C)C[C@H](OC)[C@H]2O[C@@](O)(C(=O)C(=O)N3CCCC[C@H]3C(=O)O[C@H](/C(C)=C/[C@@H]3CC[C@@H](O)[C@H](OC)C3)[C@H](C)[C@@H](O)CC1=O)[C@H](C)C[C@@H]2OC [TACROLIMUS ANHYDROUS]	> 10 µM

Now consider a different compound.
Ask: Name the reported AC50 value associated with the compound COc1ccc(CC2c3cc(OC)c(OC)cc3CC[N+]2(C)CCC(=O)OCCCCCOC(=O)CC[N+]2(C)CCc3cc(OC)c(OC)cc3C2Cc2ccc(OC)c(OC)c2)cc1OC (centres undefined)
Result: > 30 µM
